pIC50 listing for selected compounds.
Molecular target: recombinant human PI3Kδ (6-His(p110-p85α)) (Homo sapiens (Human))
Sequence (O00329 whole entry): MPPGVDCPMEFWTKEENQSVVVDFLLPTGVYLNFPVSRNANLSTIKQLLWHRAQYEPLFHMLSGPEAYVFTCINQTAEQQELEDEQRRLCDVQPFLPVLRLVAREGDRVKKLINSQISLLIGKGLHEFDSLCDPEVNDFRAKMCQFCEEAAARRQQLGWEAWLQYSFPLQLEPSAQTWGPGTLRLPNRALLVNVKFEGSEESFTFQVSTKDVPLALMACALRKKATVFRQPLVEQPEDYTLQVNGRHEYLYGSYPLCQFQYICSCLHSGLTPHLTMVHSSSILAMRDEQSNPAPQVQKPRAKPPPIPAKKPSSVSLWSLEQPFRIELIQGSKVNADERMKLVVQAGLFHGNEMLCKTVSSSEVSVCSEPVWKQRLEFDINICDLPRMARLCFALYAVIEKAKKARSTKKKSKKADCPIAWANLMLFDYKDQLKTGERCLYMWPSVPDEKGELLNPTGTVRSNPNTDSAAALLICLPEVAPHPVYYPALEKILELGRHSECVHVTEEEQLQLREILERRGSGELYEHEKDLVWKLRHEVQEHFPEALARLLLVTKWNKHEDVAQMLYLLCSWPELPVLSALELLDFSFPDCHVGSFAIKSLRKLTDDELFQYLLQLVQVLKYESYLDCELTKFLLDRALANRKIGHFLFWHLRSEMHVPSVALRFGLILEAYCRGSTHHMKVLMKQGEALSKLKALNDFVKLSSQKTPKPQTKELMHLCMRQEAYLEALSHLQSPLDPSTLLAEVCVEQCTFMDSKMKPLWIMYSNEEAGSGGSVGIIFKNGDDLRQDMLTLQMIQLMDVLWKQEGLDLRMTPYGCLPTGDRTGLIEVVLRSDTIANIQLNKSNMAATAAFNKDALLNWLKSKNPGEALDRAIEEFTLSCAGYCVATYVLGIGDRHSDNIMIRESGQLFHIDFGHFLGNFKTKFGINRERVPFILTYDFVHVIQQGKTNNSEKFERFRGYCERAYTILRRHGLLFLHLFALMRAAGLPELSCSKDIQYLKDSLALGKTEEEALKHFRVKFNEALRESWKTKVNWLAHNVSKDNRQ
Sequence (P27986 whole entry partner): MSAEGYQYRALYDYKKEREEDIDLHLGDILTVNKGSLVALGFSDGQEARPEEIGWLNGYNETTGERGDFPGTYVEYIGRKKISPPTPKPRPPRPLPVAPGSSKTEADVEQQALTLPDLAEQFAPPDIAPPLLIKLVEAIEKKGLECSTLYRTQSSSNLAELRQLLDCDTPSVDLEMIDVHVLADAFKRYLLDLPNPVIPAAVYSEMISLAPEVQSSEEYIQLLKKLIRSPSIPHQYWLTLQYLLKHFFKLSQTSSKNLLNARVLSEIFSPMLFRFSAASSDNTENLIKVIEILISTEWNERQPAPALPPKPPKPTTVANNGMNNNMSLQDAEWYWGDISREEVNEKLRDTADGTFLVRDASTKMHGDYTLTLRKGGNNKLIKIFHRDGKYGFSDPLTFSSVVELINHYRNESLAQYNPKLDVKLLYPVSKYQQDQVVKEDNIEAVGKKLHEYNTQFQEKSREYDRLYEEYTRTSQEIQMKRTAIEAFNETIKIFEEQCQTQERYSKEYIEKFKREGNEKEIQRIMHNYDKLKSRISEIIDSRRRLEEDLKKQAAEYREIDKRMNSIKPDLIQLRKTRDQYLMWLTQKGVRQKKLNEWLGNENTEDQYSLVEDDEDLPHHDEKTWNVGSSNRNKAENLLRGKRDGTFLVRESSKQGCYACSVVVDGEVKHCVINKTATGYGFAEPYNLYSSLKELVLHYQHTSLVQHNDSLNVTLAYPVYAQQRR
Experiment: Enzymatic activity assay for recombinant human PI3Kδ (ADP-Glo)
Assay type: biochemical
Conditions: 0.6 nM PI3Kδ, 20 μM ATP, 80 μM DiC8-PIP2, ADP-Glo
pIC50: −log10 of the molar value.
readout: pIC50

compound="CNS(=O)(=O)c1cc(-c2sc(Nc3cccc(N4C(=O)CNC[C@@H]4C)n3)nc2C)cc2c1C(=O)N([C@@H](C)C1CC1)C2 [Example 49]" system_under_test="recombinant human PI3Kδ (6-His(p110-p85α)) (Homo sapiens (Human))" value=8.59
compound="CNS(=O)(=O)c1cc(-c2sc(Nc3cccc(N4CCN[C@H](C)C4=O)n3)nc2C)cc2c1C(=O)N([C@@H](C)C1CC1)C2 [Example 43]" system_under_test="recombinant human PI3Kδ (6-His(p110-p85α)) (Homo sapiens (Human))" value=9.00
compound="CNS(=O)(=O)c1cc(-c2sc(Nc3cccc(N4C(=O)CNC[C@H]4C)n3)nc2C)cc2c1C(=O)N([C@@H](C)C1CC1)C2 [Example 46]" system_under_test="recombinant human PI3Kδ (6-His(p110-p85α)) (Homo sapiens (Human))" value=9.10
compound="CC[C@H](C)N1Cc2cc(-c3sc(Nc4cccc(N5CCOCC5=O)n4)nc3C)cc(S(=O)(=O)NC)c2C1=O [Example 62]" system_under_test="recombinant human PI3Kδ (6-His(p110-p85α)) (Homo sapiens (Human))" value=8.68
compound="CNS(=O)(=O)c1cc(-c2sc(Nc3cccc(N4CCCOC4=O)n3)nc2C)cc2c1C(=O)N([C@@H](C)C1CC1)C2 [Example 21]" system_under_test="recombinant human PI3Kδ (6-His(p110-p85α)) (Homo sapiens (Human))" value=9.22
compound="Cc1nc(Nc2cccc(N3CCOC3=O)n2)sc1-c1cc2c(c(S(=O)(=O)NC3COC3)c1)C(=O)N([C@@H](C)C1CC1)C2 [Example 33]" system_under_test="recombinant human PI3Kδ (6-His(p110-p85α)) (Homo sapiens (Human))" value=8.85
compound="CCNS(=O)(=O)c1cc(-c2sc(Nc3cccc(N(C)C(=O)COC)n3)nc2C)cc2c1C(=O)N([C@@H](C)C1CC1)C2 [Example 26]" system_under_test="recombinant human PI3Kδ (6-His(p110-p85α)) (Homo sapiens (Human))" value=9.30
compound="Cc1nc(Nc2cccc(N3CCCCC3=O)n2)sc1-c1cc2c(c(S(=O)(=O)NC3COC3)c1)C(=O)N([C@@H](C)C(F)(F)F)C2 [Example 36]" system_under_test="recombinant human PI3Kδ (6-His(p110-p85α)) (Homo sapiens (Human))" value=9.00
compound="Cc1nc(Nc2cccc(N3CCNC3=O)n2)sc1-c1cc2c(c(S(=O)(=O)NC3COC3)c1)C(=O)N([C@@H](C)C1CC1)C2 [Example 34]" system_under_test="recombinant human PI3Kδ (6-His(p110-p85α)) (Homo sapiens (Human))" value=9.30
compound="CC(=O)Nc1cccc(Nc2nc(C)c(-c3cc4c(c(S(C)(=O)=O)c3)C(=O)N([C@@H](C)C3CC3)C4)s2)n1 [Example 2]" system_under_test="recombinant human PI3Kδ (6-His(p110-p85α)) (Homo sapiens (Human))" value=7.71
compound="CNS(=O)(=O)c1cc(-c2sc(Nc3cccc(N4CC[C@H](O)C4=O)n3)nc2C)cc2c1C(=O)N([C@@H](C)C1CC1)C2 [Example 56]" system_under_test="recombinant human PI3Kδ (6-His(p110-p85α)) (Homo sapiens (Human))" value=9.30
compound="CNS(=O)(=O)c1cc(-c2sc(Nc3cccc(N4C(=O)CC[C@@H]4CO)n3)nc2C)cc2c1C(=O)N([C@@H](C)C1CC1)C2 [Example 58]" system_under_test="recombinant human PI3Kδ (6-His(p110-p85α)) (Homo sapiens (Human))" value=8.54
compound="CNS(=O)(=O)c1cc(-c2sc(Nc3cccc(N4CCCC4=O)n3)nc2C)cc2c1C(=O)N([C@@H](C)C(F)(F)F)C2 [Example 25]" system_under_test="recombinant human PI3Kδ (6-His(p110-p85α)) (Homo sapiens (Human))" value=9.15
compound="CCNS(=O)(=O)c1cc(-c2sc(Nc3cccc(N4CCNCC4=O)n3)nc2C)cc2c1C(=O)N([C@@H](C)C1CC1)C2 [Example 50]" system_under_test="recombinant human PI3Kδ (6-His(p110-p85α)) (Homo sapiens (Human))" value=9.10
compound="CNS(=O)(=O)c1cc(-c2sc(Nc3cccc(N4CCCS4(=O)=O)n3)nc2C)cc2c1C(=O)N([C@@H](C)C1CC1)C2 [Example 24]" system_under_test="recombinant human PI3Kδ (6-His(p110-p85α)) (Homo sapiens (Human))" value=9.40
compound="Cc1nc(Nc2cccc(N3CCCOC3=O)n2)sc1-c1cc2c(c(S(C)(=O)=O)c1)C(=O)N([C@@H](C)C1CC1)C2 [Example 8]" system_under_test="recombinant human PI3Kδ (6-His(p110-p85α)) (Homo sapiens (Human))" value=8.92
compound="CNS(=O)(=O)c1cc(-c2sc(Nc3cccc(N4CCNC(C)(C)C4=O)n3)nc2C)cc2c1C(=O)N([C@@H](C)C1CC1)C2 [Example 47]" system_under_test="recombinant human PI3Kδ (6-His(p110-p85α)) (Homo sapiens (Human))" value=8.36

Reference source for all entries: patent US10961236B2
